Property: apparent Kd (screen); scope: individual binders
- MEASURED ON: T1, TNFR1 (Homo sapiens, UniProt P19438)
- T1 chain: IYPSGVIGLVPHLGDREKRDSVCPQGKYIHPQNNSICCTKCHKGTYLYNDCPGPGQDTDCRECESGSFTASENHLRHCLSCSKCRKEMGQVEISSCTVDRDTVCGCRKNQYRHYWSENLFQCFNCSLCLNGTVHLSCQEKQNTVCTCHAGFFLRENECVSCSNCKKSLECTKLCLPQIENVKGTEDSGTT
- ASSAY INFO: yeast display SC50
MEASUREMENT TYPE: apparent Kd (screen) (nM)

1) E82Q (designed binder) SMEEEVEKAAKEYEKKKKEAIEKHLEKLKAKDKEAAERFLKELEEAAKEYAKDEAKTMSEEEAKRRAKKYKEKVLLSELSEQEQKEIKEAEEKLVRTILKYVEEAAK: 0.49
2) E26Y (designed binder) SMEEEVEKAAKEYEKKKKEAIEKHLYKLKAKDKEAAERFLKELEEAAKEYAKDEAKTMSEEEAKRRAKKYKEKVLLSELSEEEQKEIKEAEEKLVRTILKYVEEAAK: 0.869
3) E104K (designed binder) SMEEEVEKAAKEYEKKKKEAIEKHLEKLKAKDKEAAERFLKELEEAAKEYAKDEAKTMSEEEAKRRAKKYKEKVLLSELSEEEQKEIKEAEEKLVRTILKYVEKAAK: 0.446
4) K27W (designed binder) SMEEEVEKAAKEYEKKKKEAIEKHLEWLKAKDKEAAERFLKELEEAAKEYAKDEAKTMSEEEAKRRAKKYKEKVLLSELSEEEQKEIKEAEEKLVRTILKYVEEAAK: 1.16

The reported measurements were obtained from paper PMC12416549.
